Target: 5-HT1A serotoninergic receptors (Homo sapiens)
Sequence (P08908 whole entry): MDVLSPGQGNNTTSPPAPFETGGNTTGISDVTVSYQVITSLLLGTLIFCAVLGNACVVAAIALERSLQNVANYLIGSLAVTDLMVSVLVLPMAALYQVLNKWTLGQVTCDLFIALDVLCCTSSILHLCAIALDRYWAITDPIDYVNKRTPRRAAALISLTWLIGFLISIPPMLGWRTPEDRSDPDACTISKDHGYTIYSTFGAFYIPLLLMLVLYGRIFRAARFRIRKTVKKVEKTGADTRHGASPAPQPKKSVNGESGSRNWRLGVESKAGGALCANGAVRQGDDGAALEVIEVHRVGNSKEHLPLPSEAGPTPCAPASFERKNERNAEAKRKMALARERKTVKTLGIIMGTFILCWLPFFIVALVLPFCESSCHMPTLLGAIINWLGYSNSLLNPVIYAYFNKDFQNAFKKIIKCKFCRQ
Assay: Cellular functional assay, 5-HT1A serotoninergic receptors
Assay type: cell-based
Conditions: agonist mode; percent of control specific agonist response
5-HT1A ag [%] less than 40% is class 1; 5-HT1A ag [%] greater than or equal to 40% is class 0.

| Compound | Discrete label |
| --- | --- |
| O=S(=O)(NC1CCN(CCOc2nsc3ccccc23)C1)c1ccc2ccccc2c1 (centres unmarked) [Compound 39] | class 1 |
| O=S(=O)(NCC1CCN(CCOc2cccc3ccccc23)C1)c1ccc2ccccc2c1 (centres unmarked) [Compound 124] | class 1 |
| O=S(=O)(NC1CCN(CCOc2cccc3[nH]ccc23)CC1)c1ccccc1 [Compound 55] | class 0 |
| O=S(=O)(NC1CCN(CCCc2c[nH]c3ccc(F)cc23)C1)c1ccc2ccccc2c1 (centres unmarked) [Compound 80] | class 0 |

These entries and their values trace back to patent US20140135310A1.
